B1: CSTF3 (parent)
chain: YVPEKVKKAEKKLEENPYDLDAWS

# Variants of: B1
# EXPERIMENT DESCRIPTION: protein stability index of a GFP-peptide fusion (GPS, HEK-293T) (PSI 1-6); higher = more stable;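 note: lentivirally expressed fusions sorted by FACS into six bins by GFP to DsRed ratio, PSI derived from sequencing read proportions per bin multiplied by bin number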
# MEASUREMENT CONDITIONS: c terminus: a fixed tail appended
ASSAY METRIC: protein stability index
Give bare numbers.

Task item: State the recorded protein stability index for this entry: YVPEKVKEAEKKLEENPYDLDAWS [K8E]
Reply: 2.9

Here are 7 variants. What values of protein stability index were reported for them?
1. YVPEKVKKAEKKEEENPYDLDAWS [L13E]
2. YVPEKVKTAEKKLEENPYDLDAWS [K8T]
3. YVPEKVIKAEKKLEENPYDLDAWS [K7I]
4. YWPEKVKKAEKKLEENPYDLDAWS [V2W]
5. YVPEKVKKAEKKLEENPYDLLAWS [D21L]
6. YVPEKVKKAEKKLEENPYDLDWWS [A22W]
7. YVPEKVKKAEKKLEENPYWLDAWS [D19W]

Reply:
1: 2.86; 2: 2.37; 3: 2.17; 4: 3.94; 5: 1.99; 6: 2.73; 7: 2.98

// input: 7 variants below; output: protein stability index for each
1. YVSEKVKKAEKKLEENPYDLDAWS [P3S]
2. YVPEKEKKAEKKLEENPYDLDAWS [V6E]
3. YVPKKVKKAEKKLEENPYDLDAWS [E4K]
4. YVPEKVKKAEKKLEENPYDLDAKS [W23K]
5. YVPEKVKKAEKKLEENPYDLRAWS [D21R]
6. YVPEKVKKAEKRLEENPYDLDAWS [K12R]
7. YVPEKVKKAEKKLEENPEDLDAWS [Y18E]

Reply:
1: 2.23; 2: 2; 3: 3.35; 4: 1.84; 5: 2.03; 6: 2.88; 7: 1.93

# per-item lookup of protein stability index; items listed below
1. YVPEKVKKAEKKLEENPYDLDAWG [S24G]
2. YVPEKVKKAEKKLEENPFDLDAWS [Y18F]
3. YVPEKVKKAEKWLEENPYDLDAWS [K12W]
4. YVPEMVKKAEKKLEENPYDLDAWS [K5M]
5. YVPEKVKKAEKKLEENPYDLDAWE [S24E]

Reply:
[3.98, 2.55, 2.9, 2.04, 1.36]

Below are some variants; for each one, tell me its protein stability index.
1. YVPEKVKKAEKKLEENPYDLDMWS [A22M]
2. YVPEKVKKAEKKLEENPTDLDAWS [Y18T]
3. YVPEKVKKAEKKLEEWPYDLDAWS [N16W]
4. YVPEKVKKAEKKGEENPYDLDAWS [L13G]
5. YVPEKVKKAEKKLEENSYDLDAWS [P17S]
6. YVPEKVKKAEKKLEENPYDLDAGS [W23G]
7. YVPEKVKKAEKKWEENPYDLDAWS [L13W]

Reply:
2.48
2.27
2.08
2.23
2.37
3.81
2.45

Data origin: the supplement of paper PMC10567573
